Sourced from patent US7407939

For each record, write down the corresponding % inhibition of kinase activity at 1 µM; PKB-kinase (spa) Assay 1.
molecular target: protein kinase B (UniProt P31749); experiment: cell-based or functional assay
Sequence (P31749 whole entry): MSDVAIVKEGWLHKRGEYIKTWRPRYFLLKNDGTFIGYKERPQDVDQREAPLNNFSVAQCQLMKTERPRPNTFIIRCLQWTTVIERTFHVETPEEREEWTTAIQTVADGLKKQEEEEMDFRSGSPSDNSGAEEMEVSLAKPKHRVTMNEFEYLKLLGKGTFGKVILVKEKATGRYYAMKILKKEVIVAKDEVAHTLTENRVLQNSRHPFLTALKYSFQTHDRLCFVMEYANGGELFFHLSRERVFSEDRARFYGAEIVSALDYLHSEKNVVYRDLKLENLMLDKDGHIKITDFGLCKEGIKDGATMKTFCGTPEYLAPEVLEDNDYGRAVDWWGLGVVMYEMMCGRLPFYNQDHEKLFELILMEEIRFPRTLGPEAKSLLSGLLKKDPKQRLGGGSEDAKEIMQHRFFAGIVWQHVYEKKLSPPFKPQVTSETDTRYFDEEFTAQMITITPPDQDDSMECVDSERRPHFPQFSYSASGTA
Where no end group is shown, it is not given here. Side-chain parts run from the residue outwards. [ ]: non-standard residue; d: D form. The star is where a group is joined. X1 = 5‑aminoethylsulfonamide isoquinoline, O=S(=O)(NCCN*)c1cccc2cnccc12; hLeu = CC(C)CC[C@H](N)C(=O)O; Nle = CCCC[C@H](N)C(=O)O; Orn = NCCC[C@H](N)C(=O)O; Nva = CCC[C@H](N)C(=O)O; βAla = NCCC(=O)O
Write the numeric value and follow it with the unit.

# % inhibition of kinase activity at 1 µM; PKB-kinase (spa) Assay 1 lookup, item RPR[Nle]E([βAla-X1])[Nva]F (not fully specified (C-terminus)) [TY-60020-95]
46%

Next binder up: RPR[Nle]E([Gly-X1])[Orn]F (not fully specified (C-terminus)) [TY-60020-59]
62%

Next binder up: RPR[Nle]E([βAla-X1])A[hLeu] (not fully specified (C-terminus)) [TY-60020-94]
9%
